Collected Equiv. values appear next to each entry.
- MEASURED_TARGET: T1, ER β (UniProt Q92731 1-530, limits assumed)
- T1 construct: In vitro; also called estrogen receptor β; ERβ-ERE
- T1 sequence (Q92731 whole entry): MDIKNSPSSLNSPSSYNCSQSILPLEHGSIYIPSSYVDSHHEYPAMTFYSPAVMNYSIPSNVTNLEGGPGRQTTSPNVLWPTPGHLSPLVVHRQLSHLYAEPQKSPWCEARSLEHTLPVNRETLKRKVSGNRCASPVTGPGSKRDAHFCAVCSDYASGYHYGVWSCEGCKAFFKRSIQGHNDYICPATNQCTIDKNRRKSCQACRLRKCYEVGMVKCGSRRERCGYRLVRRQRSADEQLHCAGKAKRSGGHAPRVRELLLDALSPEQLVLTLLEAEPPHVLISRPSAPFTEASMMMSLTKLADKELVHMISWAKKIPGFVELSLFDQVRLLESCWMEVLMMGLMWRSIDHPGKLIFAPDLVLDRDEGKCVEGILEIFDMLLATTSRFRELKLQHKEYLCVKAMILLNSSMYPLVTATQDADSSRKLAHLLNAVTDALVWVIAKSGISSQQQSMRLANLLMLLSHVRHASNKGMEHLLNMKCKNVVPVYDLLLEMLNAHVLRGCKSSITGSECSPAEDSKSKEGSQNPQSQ
- ASSAY_NAME: peptide probe binding to ERβ, Clomiphene

- BINDER: "SSPGSREWFKDMLSR (also called α/β V; AB5) [14T-β]"
  Equiv. (%): 13
- BINDER: "SREWEDGFGGRWLSR (also called β I; B1) [4T-β]"
  Equiv. (%): -62
- BINDER: "SSWDMHQFFWEGVSR (also called AB3) [α/β III]"
  Equiv. (%): 34
- BINDER: "SSEACVGRWMLCEQLGVSR (also called β III; B3) [12B-β]"
  Equiv. (%): -61
